B1: PhoQ; a variant is named by its letters at X, in order, P23837 (parent)
chain: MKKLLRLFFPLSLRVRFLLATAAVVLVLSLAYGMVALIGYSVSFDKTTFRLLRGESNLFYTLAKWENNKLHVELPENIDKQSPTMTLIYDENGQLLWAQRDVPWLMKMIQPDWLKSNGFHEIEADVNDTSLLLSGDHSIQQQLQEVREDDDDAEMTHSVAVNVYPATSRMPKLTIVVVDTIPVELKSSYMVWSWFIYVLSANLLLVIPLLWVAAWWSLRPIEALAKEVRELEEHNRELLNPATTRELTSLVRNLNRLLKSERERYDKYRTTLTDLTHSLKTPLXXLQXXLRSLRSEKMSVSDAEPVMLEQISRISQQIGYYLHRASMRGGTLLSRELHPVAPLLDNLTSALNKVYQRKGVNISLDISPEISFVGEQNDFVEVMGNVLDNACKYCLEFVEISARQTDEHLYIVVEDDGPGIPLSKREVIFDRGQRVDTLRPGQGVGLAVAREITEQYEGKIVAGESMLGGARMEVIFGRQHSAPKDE

variants of: B1; assay: enrichment ratio after two sorts for PhoP signalling (ratio (wild type AVST 3.29)); higher = more functional; conditions: with PhoP (E. coli)
Whole data set: some 140,000 sequences, median “enrichment ratio after two sorts for PhoP signalling” near 0, cut for the highest 2% near 11. For the sample, the highest values were picked, then their nearest neighbours and some sequences at random.
PROPERTY_MEASURED: enrichment ratio

| MUTATION_LABEL | enrichment ratio |
| --- | --- |
| LYIW | ≤ 0.25 |
| RKRF | ≤ 0.25 |
| LFQL | ≤ 0.25 |

Reported enrichment ratio ( "PGDN" ) = ≤ 0.25

For record "NKRK" the listed enrichment ratio is ≤ 0.25

Form field enrichment ratio, entry "TPNE" : ≤ 0.25

variant "GNDN" , enrichment ratio observed: 0.537

Data point: "NMYM" ; enrichment ratio = ≤ 0.25

Recorded enrichment ratio (variant "SQGS" ): 7.13

Documented enrichment ratio of "LLKQ" : ≤ 0.25

Memo: "GKRA" , reported enrichment ratio: ≤ 0.25

Looking up "QPAL" , I found its enrichment ratio recorded as ≤ 0.25

Numbers sourced from a collection of fitness landscapes (doi:10.1126/science.1257360).
